Tested on: gastric secretion in pylorus-ligated Sprague-Dawly rats
protocol.description: Inhibition of gastric secretion (pylorus-ligated rats, Shay method)
Format: in vivo
test.parameters: 20 mg/kg intraduodenally, 5 hours, gastric juice amount relative to omeprazole, equation (I)
property: Relative volume
The answer should be written as a number, with no unit following it.

Use these answered entries as a reference point.
INSERT INTO results (molecule, reported_measurement) VALUES
  ('Cc1c(CO)nc(Nc2ccccc2)nc1N1CCc2ccccc2C1C.Cl (centres unmarked) [Example 32]', 0.84),
  ('COCc1nc(Nc2ccc(F)cc2C)nc(N2CCc3ccccc3C2C)c1C.Cl (centres unmarked) [Example 29]', 0.78),
  ('CCCNc1nc(COC)c(C)c(N2CCc3ccccc3C2)n1.Cl [Example 25]', 1.00);

Please give measured Relative volume of the following entry: Cc1c(COC(=O)[C@@H](N)C(C)C)nc(Nc2ccc(F)cc2)nc1N1CCc2ccccc2C1C.Cl.Cl (some centres unmarked) [Example 171] 1.46

Data origin: patent US6352993B1
